Molecular target: tissue factor (TF) on the surface of TF-positive tumor cells (human, UniProt P13726 33-295)
Assay: cell-based or functional assay
# coagulation time V50 (s), MDA-MB-231 cells + human plasma, 5 mM Ca2+, 20 µg/mL antibody annotations

Request the reported coagulation time V50 (s), MDA-MB-231 cells + human plasma, 5 mM Ca2+, 20 µg/mL antibody associated with 2B12B10-hz1 (antibody, human IgG1, kappa, V domains shown, Humanized IgG1 kappa) VH: EVQLVESGGGLVQPGGSLRLSCAASGFAFSDSGMHWVRQAPGKGLEWVAYISRDSNTIYYADSVKGRFTISRDNAKNSLYLQMNSLRAEDTAVYYCGRRYYGDYFDYWGQGTLVTVSS VL: DIVLTQSPATLSLSPGERATLSCRASQRVTNYLHWYQQKPGQSPRLLIKYASQSISGIPARFSGSGSGTDFTLTISSLEPEDFAVYFCQQSYNWPLTFGQGTKVEIKR
24.2 s

Query: coagulation time V50 (s), MDA-MB-231 cells + human plasma, 5 mM Ca2+, 20 µg/mL antibody; subject: 27H8H3-hz1 (antibody, human IgG1, kappa, V domains shown, Humanized IgG1 kappa) VH: QVQLVQSGAEVKKPGASVKVSCKASGYTFTTYWMHWVRQAPGQGLEWMGMIDPSDSYTSYAQKFQGRVTLTVDTSTSTAYMELSSLRSEDTAVYYCTRGSGPGLFAYWGQGTLVTVSS VL: DIQETQSPSSLSASVGDRVTITCRASQGISNYLNWYQQKPGKAPKLLIYHTSRLHSGVPSRFSGSVSGTDFTLTISSLQPEDFATYFCQQGNTLPYTFGQGTKVEIKR
26.2 s

What value of coagulation time V50 (s), MDA-MB-231 cells + human plasma, 5 mM Ca2+, 20 µg/mL antibody has been recorded for this entry: 30G11B7-hz1 (antibody, human IgG1, kappa, V domains shown, Humanized IgG1 kappa) VH: EVQLVESGGGLVKPGGSLRLSCAASGFTFSDYGMFWVRQAPGKGLEWVAYISRGSTTIYYADSVKGRFTISRDNAKNSLYLQMNSLRAEDTAVYFCTRRYYGDYFDYWGQGTLVTVSS VL: EIVLTQSPDFQSVTPKEKVTITCRASQSISNYLHWYQQKPDQSPKLLIKYASQSISGVPSRFSGSGSGTDFTLTINSLEAEDAATYFCQQSYNWPLTFGQGTKVEIKR
29.2 s

Quick one: coagulation time V50 (s), MDA-MB-231 cells + human plasma, 5 mM Ca2+, 20 µg/mL antibody of 22F11H5-hz1 (antibody, human IgG1, kappa, V domains shown, Humanized IgG1 kappa) VH: QVQLVQSGAEVKQPGASVKVSCKASGYTFTTYWMHWVRQAPGQGLEWMGMIDPSDSYTTYAQKFQGRVTLTVDTSTSTAYMELSSLRSEDTAVYYCARGSGPGLFAYWGQGTLVTVSS VL: DIQETQSPSSLSASVGDRVTITCRASQDIRNYLNWYQQKPGKAPKLLIYHTSRLQSGVPSRFSGSGSGTDYTLTISSLQPEDFATYYCQQGNMPPYTFGQGTKVEIKR ?
49.4 s
